Provenance of the data: the supplement of paper PMC4862054

The following molecules are listed with their measured drug sensitivity score values.
# System: MFM-223
# assayRemarks: drug sensitivity score (DSS), CellTiter-Blue viability (DSS (AUC-based score)); higher = stronger viability inhibition; extreme values may be limits of the assay
# runParameters: incubation time: 72 h
experimentalReadout: drug sensitivity score

{"molecule": "CNNCc1ccc(C(=O)NC(C)C)cc1 [Procarbazine]", "tgt": "MFM-223", "valueReported": 0}
{"molecule": "CN(C)C[C@@H]1CCn2cc(c3ccccc32)C2=C(C(=O)NC2=O)c2cn(c3ccccc23)CCO1 [Ruboxistaurin]", "tgt": "MFM-223", "valueReported": 6.81}
{"molecule": "O=C(O)CCCc1ccc(N(CCCl)CCCl)cc1 [Chlorambucil]", "tgt": "MFM-223", "valueReported": 0}
